- Test system: Escherichia coli
- assay.overview: Antimicrobial activity against OmpC/OmpF porin deficient Escherichia coli HB4 transformed with Escherichia coli ECB-1 plasmid carrying ACC-1 by agar dilution method
- Format: functional
Lab note: cut-off is 20 mg/L. Strictly less in MIC is criterion met. Exactly 20 mg/L or more is criterion not met.

molecule: CO/N=C(\C(=O)N[C@@H]1C(=O)N2C(C(=O)O)=C(COC(C)=O)CS[C@H]12)c1csc(N)n1 [CEFOTAXIME]
group: criterion met

molecule: CC(C)(O/N=C(\C(=O)N[C@@H]1C(=O)N2C(C(=O)[O-])=C(C[n+]3ccccc3)CS[C@H]12)c1csc(N)n1)C(=O)O [CEFTAZIDIME]
group: criterion met

molecule: C[C@@H](O)[C@H]1C(=O)N2C(C(=O)O)=C(S[C@@H]3CN[C@H](C(=O)Nc4cccc(C(=O)O)c4)C3)[C@H](C)[C@H]12 [ERTAPENEM]
group: criterion met

molecule: C[C@@H](O)[C@H]1C(=O)N2C(C(=O)O)=C(SCCNC=N)C[C@H]12 [IMIPENEM ANHYDROUS]
group: criterion met

molecule: C[C@@H](O)[C@H]1C(=O)N2C(C(=O)O)=C(S[C@@H]3CN[C@H](C(=O)N(C)C)C3)[C@H](C)[C@H]12 [MEROPENEM]
group: criterion met

molecule: CO/N=C(\C(=O)N[C@@H]1C(=O)N2C(C(=O)O)=C(COC(N)=O)CS[C@H]12)c1ccco1 [CEFUROXIME]
group: criterion not met

molecule: CO[C@@]1(NC(=O)Cc2cccs2)C(=O)N2C(C(=O)O)=C(COC(N)=O)CS[C@@H]21 [CEFOXITIN]
group: criterion not met

molecule: CO/N=C(\C(=O)N[C@@H]1C(=O)N2C(C(=O)[O-])=C(C[N+]3(C)CCCC3)CS[C@H]12)c1csc(N)n1 [CEFEPIME]
group: criterion met

---

- Tested on: Escherichia coli
- assay.overview: Antimicrobial activity against OmpC/OmpF porin deficient Escherichia coli HB4 transformed with Escherichia coli pGLK-1 plasmid carrying FOX-1 by agar dilution method
- Assay type: functional
Recorded log10(MIC) by entry
observed.property: log10(MIC) (log10 of the value in mg/L)

compound: CC(C)(O/N=C(\C(=O)N[C@@H]1C(=O)N2C(C(=O)[O-])=C(C[n+]3ccccc3)CS[C@H]12)c1csc(N)n1)C(=O)O [CEFTAZIDIME]
log10(MIC): 2.71

compound: CO/N=C(\C(=O)N[C@@H]1C(=O)N2C(C(=O)O)=C(COC(C)=O)CS[C@H]12)c1csc(N)n1 [CEFOTAXIME]
log10(MIC): 1.51

compound: C[C@@H](O)[C@H]1C(=O)N2C(C(=O)O)=C(S[C@@H]3CN[C@H](C(=O)N(C)C)C3)[C@H](C)[C@H]12 [MEROPENEM]
log10(MIC): -0.12

compound: C[C@@H](O)[C@H]1C(=O)N2C(C(=O)O)=C(SCCNC=N)C[C@H]12 [IMIPENEM ANHYDROUS]
log10(MIC): -0.30

compound: CO/N=C(\C(=O)N[C@@H]1C(=O)N2C(C(=O)[O-])=C(C[N+]3(C)CCCC3)CS[C@H]12)c1csc(N)n1 [CEFEPIME]
log10(MIC): 0.90

compound: C[C@@H](O)[C@H]1C(=O)N2C(C(=O)O)=C(S[C@@H]3CN[C@H](C(=O)Nc4cccc(C(=O)O)c4)C3)[C@H](C)[C@H]12 [ERTAPENEM]
log10(MIC): 0.60

---

- System: Escherichia coli
- assay.overview: Antimicrobial activity against OmpC/OmpF porin deficient Escherichia coli HB4 transformed with Escherichia coli EC-6 plasmid carrying AmpC-B2 by agar dilution method
- Assay type: functional
Recorded MIC by entry
observed.property: MIC

compound: CC(C)(O/N=C(\C(=O)N[C@@H]1C(=O)N2C(C(=O)[O-])=C(C[n+]3ccccc3)CS[C@H]12)c1csc(N)n1)C(=O)O
result: 8 µg/mL
//
compound: C[C@@H](O)[C@H]1C(=O)N2C(C(=O)O)=C(S[C@@H]3CN[C@H](C(=O)Nc4cccc(C(=O)O)c4)C3)[C@H](C)[C@H]12
result: 2 µg/mL
//
compound: CO/N=C(\C(=O)N[C@@H]1C(=O)N2C(C(=O)[O-])=C(C[N+]3(C)CCCC3)CS[C@H]12)c1csc(N)n1 [CEFEPIME]
result: 1 µg/mL
//
compound: C[C@@H](O)[C@H]1C(=O)N2C(C(=O)O)=C(SCCNC=N)C[C@H]12 [IMIPENEM ANHYDROUS]
result: 0.5 µg/mL
//
compound: CO/N=C(\C(=O)N[C@@H]1C(=O)N2C(C(=O)O)=C(COC(N)=O)CS[C@H]12)c1ccco1
result: 512 µg/mL
//
compound: CO[C@@]1(NC(=O)Cc2cccs2)C(=O)N2C(C(=O)O)=C(COC(N)=O)CS[C@@H]21
result: 512 µg/mL
//
compound: CO/N=C(\C(=O)N[C@@H]1C(=O)N2C(C(=O)O)=C(COC(C)=O)CS[C@H]12)c1csc(N)n1
result: 4 µg/mL
//
compound: C[C@@H](O)[C@H]1C(=O)N2C(C(=O)O)=C(S[C@@H]3CN[C@H](C(=O)N(C)C)C3)[C@H](C)[C@H]12
result: 0.032 µg/mL

---

- System: Escherichia coli
- assay.overview: Antimicrobial activity against OmpC/OmpF porin deficient Escherichia coli HB4 by agar dilution method
- Assay type: functional
Recorded MIC by entry

molecule: C[C@@H](O)[C@H]1C(=O)N2C(C(=O)O)=C(S[C@@H]3CN[C@H](C(=O)Nc4cccc(C(=O)O)c4)C3)[C@H](C)[C@H]12
assayed.target: Escherichia coli
quantity.unit: µg/mL
MIC: 1
//
molecule: CO[C@@]1(NC(=O)Cc2cccs2)C(=O)N2C(C(=O)O)=C(COC(N)=O)CS[C@@H]21
assayed.target: Escherichia coli
quantity.unit: µg/mL
MIC: 256
//
molecule: CO/N=C(\C(=O)N[C@@H]1C(=O)N2C(C(=O)O)=C(COC(C)=O)CS[C@H]12)c1csc(N)n1
assayed.target: Escherichia coli
quantity.unit: µg/mL
MIC: 4
//
molecule: C[C@@H](O)[C@H]1C(=O)N2C(C(=O)O)=C(S[C@@H]3CN[C@H](C(=O)N(C)C)C3)[C@H](C)[C@H]12
assayed.target: Escherichia coli
quantity.unit: µg/mL
MIC: 0.032
//
molecule: CO/N=C(\C(=O)N[C@@H]1C(=O)N2C(C(=O)[O-])=C(C[N+]3(C)CCCC3)CS[C@H]12)c1csc(N)n1 [CEFEPIME]
assayed.target: Escherichia coli
quantity.unit: µg/mL
MIC: 1
//
molecule: CO/N=C(\C(=O)N[C@@H]1C(=O)N2C(C(=O)O)=C(COC(N)=O)CS[C@H]12)c1ccco1
assayed.target: Escherichia coli
quantity.unit: µg/mL
MIC: 32
//
molecule: CC(C)(O/N=C(\C(=O)N[C@@H]1C(=O)N2C(C(=O)[O-])=C(C[n+]3ccccc3)CS[C@H]12)c1csc(N)n1)C(=O)O
assayed.target: Escherichia coli
quantity.unit: µg/mL
MIC: 4

---

- System: Escherichia coli
- assay.overview: Antimicrobial activity against OmpC/OmpF porin deficient Escherichia coli HB4 transformed with Enterobacter asburiae CIP 105006 plasmid carrying ACT-1 by agar dilution method
- Type: functional
observed.property: MIC

compound: C[C@@H](O)[C@H]1C(=O)N2C(C(=O)O)=C(SCCNC=N)C[C@H]12 [IMIPENEM ANHYDROUS]
result: 16 µg/mL

compound: CO/N=C(\C(=O)N[C@@H]1C(=O)N2C(C(=O)[O-])=C(C[N+]3(C)CCCC3)CS[C@H]12)c1csc(N)n1 [CEFEPIME]
result: 4 µg/mL

compound: CO/N=C(\C(=O)N[C@@H]1C(=O)N2C(C(=O)O)=C(COC(C)=O)CS[C@H]12)c1csc(N)n1
result: 64 µg/mL

compound: CO/N=C(\C(=O)N[C@@H]1C(=O)N2C(C(=O)O)=C(COC(N)=O)CS[C@H]12)c1ccco1
result: > 512 µg/mL

compound: C[C@@H](O)[C@H]1C(=O)N2C(C(=O)O)=C(S[C@@H]3CN[C@H](C(=O)N(C)C)C3)[C@H](C)[C@H]12
result: 4 µg/mL

compound: CC(C)(O/N=C(\C(=O)N[C@@H]1C(=O)N2C(C(=O)[O-])=C(C[n+]3ccccc3)CS[C@H]12)c1csc(N)n1)C(=O)O
result: > 512 µg/mL

compound: CO[C@@]1(NC(=O)Cc2cccs2)C(=O)N2C(C(=O)O)=C(COC(N)=O)CS[C@@H]21
result: > 512 µg/mL

compound: C[C@@H](O)[C@H]1C(=O)N2C(C(=O)O)=C(S[C@@H]3CN[C@H](C(=O)Nc4cccc(C(=O)O)c4)C3)[C@H](C)[C@H]12
result: 256 µg/mL

Ref: ChEMBL document CHEMBL1687794
